Source listed as patent US8129366B2.

- ASSAY METHOD TEXT: Solubility test in first and second liquid of the Japanese Pharmacopoeia
- CONDITION: first liquid of the Japanese Pharmacopoeia (JP1), pH 1.2, simulated gastric fluid, Solubility, First liquid of Japanese Pharmacopoeia (μg/mL), JP1, pH=1.2
Measured solubility, listed per entry.
Write the value in µg/mL as a bare number.

Example results:
{"columns": ["MOLECULE", "ASSAY RESULT"],
 "data": [
  ["CO[C@@H]1CCN([C@H]2C[C@@H](CO[C@H]3CC[C@H](C(=O)O)CC3)N(C(=O)Cc3cc(Cl)c(NC(=O)c4csc5ccccc45)cc3F)C2)C1 [Example 32]", 1700],
  ["CN(C)CC1CN([C@H]2C[C@@H](CO[C@H]3CC[C@H](C(=O)O)CC3)N(C(=O)Cc3cc(Cl)c(NC(=O)c4cn(C)c5ccccc45)cc3F)C2)C1 [Example 29]", 1000],
  ["CC(C)N1CCN([C@H]2C[C@@H](CO[C@H]3CC[C@H](C(=O)O)CC3)N(C(=O)Cc3cc(Cl)c(NC(=O)c4cn(C)c5ccccc45)cc3Cl)C2)CC1 [Example 113]", 1000],
  ["O=C(Nc1cc(Cl)c(CC(=O)N2C[C@@H](N3CCCC3)C[C@H]2CO[C@H]2CC[C@H](C(=O)O)CC2)cc1Cl)c1csc2ccccc12 [Example 31]", 1840],
  ["CCO[C@H]1CCN([C@H]2C[C@@H](CO[C@H]3CC[C@H](C(=O)O)CC3)N(C(=O)Cc3cc(Cl)c(NC(=O)c4cn(C)c5ccccc45)cc3Cl)C2)C1 [Example 36]", 1940]
]}

**Q:** Given the molecule COCCC1CN([C@H]2C[C@@H](CO[C@H]3CC[C@H](C(=O)O)CC3)N(C(=O)Cc3cc(Cl)c(NC(=O)c4csc5ccccc45)cc3F)C2)C1 [Example 12] , write its reported solubility.
**A:** 1910

**Q:** Given the molecule Cn1cc(C(=O)Nc2cc(F)c(CC(=O)N3C[C@@H](N4CCN(CCF)CC4)C[C@H]3CO[C@H]3CC[C@H](C(=O)O)CC3)cc2Cl)c2ccccc21 [Example 118] , write its reported solubility.
**A:** 1000

###

- ASSAY SYSTEM: hα4 and β1 integrins (Homo sapiens, UniProt P05556+P13612)
- Sequence (P13612 34-1032): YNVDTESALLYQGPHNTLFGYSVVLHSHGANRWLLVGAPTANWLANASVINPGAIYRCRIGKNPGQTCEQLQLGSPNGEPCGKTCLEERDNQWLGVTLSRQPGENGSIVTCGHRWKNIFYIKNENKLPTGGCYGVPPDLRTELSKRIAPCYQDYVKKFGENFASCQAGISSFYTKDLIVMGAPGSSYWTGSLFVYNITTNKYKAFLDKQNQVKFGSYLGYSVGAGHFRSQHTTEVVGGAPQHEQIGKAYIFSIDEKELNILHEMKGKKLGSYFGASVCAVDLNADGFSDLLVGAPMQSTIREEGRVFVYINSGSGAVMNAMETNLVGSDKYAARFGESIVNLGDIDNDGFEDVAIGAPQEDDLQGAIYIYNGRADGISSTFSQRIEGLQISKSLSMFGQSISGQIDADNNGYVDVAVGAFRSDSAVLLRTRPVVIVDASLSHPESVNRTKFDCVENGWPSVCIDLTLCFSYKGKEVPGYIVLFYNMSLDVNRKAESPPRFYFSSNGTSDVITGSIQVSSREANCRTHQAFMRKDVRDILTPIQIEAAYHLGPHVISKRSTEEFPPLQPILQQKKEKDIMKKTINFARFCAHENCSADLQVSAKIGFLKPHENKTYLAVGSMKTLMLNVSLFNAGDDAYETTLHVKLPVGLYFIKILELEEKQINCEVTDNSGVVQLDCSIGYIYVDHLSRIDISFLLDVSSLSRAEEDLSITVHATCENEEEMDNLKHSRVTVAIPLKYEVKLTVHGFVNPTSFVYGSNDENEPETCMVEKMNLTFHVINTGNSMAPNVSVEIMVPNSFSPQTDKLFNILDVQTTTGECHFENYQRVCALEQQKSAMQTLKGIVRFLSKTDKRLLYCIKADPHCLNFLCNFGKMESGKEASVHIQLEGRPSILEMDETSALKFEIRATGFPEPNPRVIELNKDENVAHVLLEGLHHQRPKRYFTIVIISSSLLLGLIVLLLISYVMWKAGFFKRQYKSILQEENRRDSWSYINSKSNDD
- Sequence (P05556 21-798): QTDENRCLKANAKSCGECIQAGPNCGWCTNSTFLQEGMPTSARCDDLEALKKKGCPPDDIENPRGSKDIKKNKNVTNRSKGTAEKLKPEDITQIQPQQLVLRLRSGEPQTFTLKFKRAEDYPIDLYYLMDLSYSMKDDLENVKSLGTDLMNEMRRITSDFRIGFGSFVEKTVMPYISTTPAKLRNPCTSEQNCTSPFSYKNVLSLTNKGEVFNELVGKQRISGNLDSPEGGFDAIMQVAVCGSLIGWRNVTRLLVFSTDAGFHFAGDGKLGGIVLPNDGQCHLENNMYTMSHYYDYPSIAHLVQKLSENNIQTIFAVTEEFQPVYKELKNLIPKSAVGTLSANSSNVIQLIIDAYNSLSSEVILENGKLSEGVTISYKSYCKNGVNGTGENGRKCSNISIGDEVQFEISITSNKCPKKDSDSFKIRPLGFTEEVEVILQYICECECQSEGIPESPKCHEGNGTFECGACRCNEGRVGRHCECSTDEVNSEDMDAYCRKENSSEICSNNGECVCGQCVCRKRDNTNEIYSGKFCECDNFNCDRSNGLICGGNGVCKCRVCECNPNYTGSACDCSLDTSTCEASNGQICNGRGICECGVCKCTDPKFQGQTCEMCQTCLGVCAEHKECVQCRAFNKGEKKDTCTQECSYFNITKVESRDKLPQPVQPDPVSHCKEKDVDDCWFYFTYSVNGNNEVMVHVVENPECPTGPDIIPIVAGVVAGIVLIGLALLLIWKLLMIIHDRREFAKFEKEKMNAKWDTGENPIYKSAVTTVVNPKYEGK
- ASSAY METHOD TEXT: In vitro inhibition of binding between CHO cells expressing hα4 and β1 integrins and Eu3+-hVCAM-1 D1D7-IgG
- CONDITION: CHO cells expressing hα4 and β1 integrins; Eu3+-hVCAM-1 D1D7-IgG ligand; without HSA
Please use class 1 for Ki under 4 nM and class 0 for everything else, ties included.

{"columns": ["MOLECULE", "LABEL CLASS"],
 "data": [
  ["Cn1cc(C(=O)Nc2cc(F)c(CC(=O)N3C[C@@H](N4CC5CC4CO5)C[C@H]3CO[C@H]3CC[C@H](C(=O)O)CC3)cc2Cl)c2ccccc21 (some centres unmarked) [Example 163]", "class 0"],
  ["CO[C@H]1CN([C@H]2C[C@@H](CO[C@H]3CC[C@H](C(=O)O)CC3)N(C(=O)Cc3cc(Cl)c(NC(=O)c4cn(C)c5ccccc45)cc3Cl)C2)C[C@H]1OC [Example 56]", "class 1"],
  ["COC[C@@H]1C[C@H](OC)CN1[C@H]1C[C@@H](CO[C@H]2CC[C@H](C(=O)O)CC2)N(C(=O)Cc2cc(Cl)c(NC(=O)c3cn(C)c4ccccc34)cc2Cl)C1 [Example 46]", "class 0"],
  ["CC(=O)N[C@H]1CCN([C@H]2C[C@@H](CO[C@H]3CC[C@H](C(=O)O)CC3)N(C(=O)Cc3cc(Cl)c(NC(=O)c4csc5ccccc45)cc3F)C2)C1 [Example 66]", "class 1"]
]}

Could you now look at the following molecule, please?
**Q:** # check: Ki < 4 nM for CN(C)C1CCN([C@H]2C[C@@H](CO[C@H]3CC[C@H](C(=O)O)CC3)N(C(=O)Cc3cc(Cl)c(NC(=O)c4cn(C)c5ccccc45)cc3F)C2)CC1 [Example 109]
**A:** class 1

###

Measured Ki, listed per entry.
- ASSAY SYSTEM: hα4 and β1 integrins (Homo sapiens, UniProt P05556+P13612)
- Construct: expressed in transfected cells; host or cells: CHO cells
- ASSAY METHOD TEXT: In vitro inhibition of binding between CHO cells expressing hα4 and β1 integrins and Eu3+-hVCAM-1 D1D7-IgG
- CONDITION: CHO cells expressing hα4 and β1 integrins; Eu3+-hVCAM-1 D1D7-IgG ligand; without HSA
Write the value in nM as a bare number.

Example results:
{"columns": ["ITEM SMILES", "ASSAY SYSTEM", "METRIC NAME", "ASSAY RESULT"],
 "data": [
  ["CCO[C@@H]1CCN([C@H]2C[C@@H](CO[C@H]3CC[C@H](C(=O)O)CC3)N(C(=O)Cc3cc(Cl)c(NC(=O)c4csc5ccccc45)cc3F)C2)C1", "hα4 and β1 integrins (Homo sapiens, UniProt P05556+P13612)", "Ki", 2],
  ["CO[C@H]1CN([C@H]2C[C@@H](CO[C@H]3CC[C@H](C(=O)O)CC3)N(C(=O)Cc3cc(Cl)c(NC(=O)c4csc5ccccc45)cc3Cl)C2)C[C@H]1OC", "hα4 and β1 integrins (Homo sapiens, UniProt P05556+P13612)", "Ki", 1.5],
  ["CO[C@@H]1CCN([C@H]2C[C@@H](CO[C@H]3CC[C@H](C(=O)O)CC3)N(C(=O)Cc3cc(Cl)c(NC(=O)c4cn(C)c5ccccc45)cc3Cl)C2)C1", "hα4 and β1 integrins (Homo sapiens, UniProt P05556+P13612)", "Ki", 5.6],
  ["CN(C)C1CN([C@H]2C[C@@H](CO[C@H]3CC[C@H](C(=O)O)CC3)N(C(=O)Cc3cc(Cl)c(NC(=O)c4csc5ccccc45)cc3Cl)C2)C1", "hα4 and β1 integrins (Homo sapiens, UniProt P05556+P13612)", "Ki", 2.5]
]}

Kindly consider the entry below.
**Q:** State recorded Ki with hα4 and β1 integrins (Homo sapiens, UniProt P05556+P13612), entry O=C(Nc1cc(Cl)c(CC(=O)N2C[C@@H](N3CCN(CC(F)(F)F)CC3)C[C@H]2CO[C@H]2CC[C@H](C(=O)O)CC2)cc1Cl)c1coc2ccccc12 , no comment.
**A:** 3.4

###

Measured pKi, listed per entry.
- ASSAY SYSTEM: hα4 and β1 integrins (Homo sapiens, UniProt P05556+P13612)
- ASSAY METHOD TEXT: In vitro inhibition of binding between CHO cells expressing hα4 and β1 integrins and Eu3+-hVCAM-1 D1D7-IgG
- CONDITION: CHO cells expressing hα4 and β1 integrins; Eu3+-hVCAM-1 D1D7-IgG ligand; without HSA
Value format note: pKi is -log10 of concentration (mol/L); just state the number.

Example results:
{"columns": ["ITEM SMILES", "ASSAY RESULT"],
 "data": [
  ["C[C@@H]1CC[C@@H](C)N1[C@H]1C[C@@H](CO[C@H]2CC[C@H](C(=O)O)CC2)N(C(=O)Cc2cc(Cl)c(NC(=O)c3coc4ccccc34)cc2F)C1", 7.74],
  ["O=C(Nc1cc(F)c(CC(=O)N2C[C@@H](N3CCC(N4CCOCC4)CC3)C[C@H]2CO[C@H]2CC[C@H](C(=O)O)CC2)cc1Cl)c1csc2ccccc12", 9.60]
]}

Kindly consider the entry below.
**Q:** Given the molecule CN1CCN([C@H]2C[C@@H](CO[C@H]3CC[C@H](C(=O)O)CC3)N(C(=O)Cc3cc(Cl)c(NC(=O)c4coc5ccccc45)cc3Cl)C2)CC1=O , write its reported pKi.
**A:** 8.68

###

- ASSAY SYSTEM: hα4 and β1 integrins (Homo sapiens, UniProt P05556+P13612)
- ASSAY METHOD TEXT: In vitro inhibition of binding between CHO cells expressing hα4 and β1 integrins and Eu3+-hVCAM-1 D1D7-IgG
- CONDITION: CHO cells expressing hα4 and β1 integrins; Eu3+-hVCAM-1 D1D7-IgG ligand; without HSA
METRIC NAME: pKi
Value format note: pKi is -log10 of concentration (mol/L); just state the number.

**Q:** Given the compound C[C@@H]1CN([C@H]2C[C@@H](CO[C@H]3CC[C@H](C(=O)O)CC3)N(C(=O)Cc3cc(Cl)c(NC(=O)c4cn(C)c5ccccc45)cc3Cl)C2)C[C@H](C)O1 [Example 80] , write its reported pKi.
**A:** 8.19

###

- ASSAY SYSTEM: hα4 and β1 integrins (Homo sapiens, UniProt P05556+P13612)
- ASSAY METHOD TEXT: In vitro inhibition of binding between CHO cells expressing hα4 and β1 integrins and Eu3+-hVCAM-1 D1D7-IgG
- CONDITION: CHO cells expressing hα4 and β1 integrins; Eu3+-hVCAM-1 D1D7-IgG ligand; without HSA
Measured Ki, listed per entry.

**Q:** State recorded Ki with hα4 and β1 integrins (Homo sapiens, UniProt P05556+P13612), entry O=C(Nc1cc(F)c(CC(=O)N2C[C@@H](N3CCN(CC(F)(F)F)CC3)C[C@H]2CO[C@H]2CC[C@H](C(=O)O)CC2)cc1Cl)c1csc2ccccc12 , no comment.
**A:** 1.8 nM

**Q:** State recorded Ki with hα4 and β1 integrins (Homo sapiens, UniProt P05556+P13612), entry O=C(Nc1cc(Cl)c(CC(=O)N2C[C@@H](n3ccnc3)C[C@H]2CO[C@H]2CC[C@H](C(=O)O)CC2)cc1Cl)c1csc2ccccc12 , no comment.
**A:** 2.1 nM

**Q:** State recorded Ki with hα4 and β1 integrins (Homo sapiens, UniProt P05556+P13612), entry O=C(Nc1cc(Cl)c(CC(=O)N2C[C@@H](N3CCN(CC(F)(F)F)CC3)C[C@H]2CO[C@H]2CC[C@H](C(=O)O)CC2)cc1Cl)c1c[nH]c2ccccc12 , no comment.
**A:** 0.93 nM

**Q:** State recorded Ki with hα4 and β1 integrins (Homo sapiens, UniProt P05556+P13612), entry O=C(Nc1cc(F)c(CC(=O)N2C[C@@H](N3CCSCC3)C[C@H]2CO[C@H]2CC[C@H](C(=O)O)CC2)cc1Cl)c1coc2ccccc12 , no comment.
**A:** 4.4 nM
